Tested on: K562 CRISPRi cells
Assay: Constant region variant library pooled growth screen, K562
Assay type: cell-based, human
Test parameters: sgRNA constant region variants; activity relative to the unmodified constant region cr995
Exercise: state measured Mean relative activity for each of the molecules provided.
Answers are plain numbers.

[[record]]
molecule = "cr029 (nucleic acid, listed as DNA, chemistry not fully specified) guide: GTTTCAGGGCTAAGCTGGAAACAGCATAGCAAGTTTAAATAAGGCTAGTCCGTTATCAACTTGAAAAAGTGGCACCGAGTCGGTGCT"
result_number = 0.1663

[[record]]
molecule = "cr294 (nucleic acid, listed as DNA, chemistry not fully specified) guide: GTTTAAGAGCTAAGCTGGAAACAGCATAGCAAGTTTAAATAAGAATATTTCGTTATCAACTTGAAAAAGTGGCACCGAGTCGGTGCT"
result_number = 0.1883

[[record]]
molecule = "cr158 (nucleic acid, listed as DNA, chemistry not fully specified) guide: GTTTAAGAGCTAAGCTGGAAACAGCATAGCAAGTTTAAATAAAGTTAATCTGTTATCAACTCGAAAGAGTGGCACCGAGTCGGTGCT"
result_number = 0.2403


q: Return value of Mean relative activity for input cr110 (nucleic acid, listed as DNA, chemistry not fully specified) guide: GTTTAAGAGCTAAGCTGGAAACAGCATAGCAAGTTTAAATAAGGATATTCCGTTATCAACTTGAAAAAGTGGCATTGAGTCAATGCT , no commentary.
a: 0.2547
